These entries and their values trace back to patent US9586962B2.

tgt: human orexin 2 receptor (Homo sapiens (Human))
experiment: Human orexin 2 receptor Ca2+ mobilization assay (FLIPR, PFSK cells, orexin B 100 nM)
Assay type: cell-based
experimentalSetup: modified Cheng-Prusoff correction, read-out: OR 2 Kb
observedProperty: Kb (nM)

Below, 3 compounds whose answers are already recorded.
COc1ccnc(N2CC3CN(C(=O)c4c(C)ccc5ccccc45)CC3C2)n1 (centres unmarked)
32
Cc1ccc(-c2ncccn2)c(C(=O)N2CC3CN(c4cc(C(F)(F)F)nc(N(C)C)n4)CC3C2)c1 (centres unmarked)
25
Cc1cc(C)nc(N2CC3CN(C(=O)c4cccc5ccccc45)CC3C2)n1 (centres unmarked)
40

A: COc1cc(OC)nc(N2CC3CN(C(=O)c4cc(C)ccc4-n4nccn4)CC3C2)n1 (centres unmarked)
B: COc1ccc(C(=O)N2CC3CN(c4nc(C)c(F)c(C)n4)CC3C2)c(-n2nccn2)c1 (centres unmarked)
C: Cc1cncc(N2CC3CN(C(=O)c4ccccc4-n4nccn4)CC3C2)n1 (centres unmarked)
D: COc1ccnc(N2CC3CN(C(=O)c4cc(F)ccc4-c4ncccn4)CC3C2)n1 (centres unmarked)
E: COc1ccc(-n2nccn2)c(C(=O)N2CC3CN(c4cnc5cc(F)c(F)cc5n4)CC3C2)c1 (centres unmarked)
Falling order of Kb, please. Please write the labels in the order that was asked for. A, D, C, E, B
(A: 100 nM, D: 40 nM, C: 25 nM, E: 15 nM, B: 5 nM)

###

tgt: human orexin 2 receptor (Homo sapiens (Human), UniProt O43614)
Sequence (O43614 whole entry): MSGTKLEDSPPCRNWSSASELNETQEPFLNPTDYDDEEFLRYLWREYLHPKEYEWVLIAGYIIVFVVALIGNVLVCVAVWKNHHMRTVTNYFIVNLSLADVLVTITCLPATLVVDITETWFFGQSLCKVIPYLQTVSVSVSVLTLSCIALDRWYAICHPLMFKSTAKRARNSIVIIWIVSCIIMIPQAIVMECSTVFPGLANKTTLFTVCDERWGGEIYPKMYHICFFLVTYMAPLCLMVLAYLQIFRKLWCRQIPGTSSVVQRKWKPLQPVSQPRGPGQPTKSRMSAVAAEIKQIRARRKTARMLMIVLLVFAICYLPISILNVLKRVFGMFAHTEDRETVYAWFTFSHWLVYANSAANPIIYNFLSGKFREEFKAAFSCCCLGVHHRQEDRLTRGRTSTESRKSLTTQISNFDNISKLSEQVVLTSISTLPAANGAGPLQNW
experiment: Human orexin 2 receptor Ca2+ mobilization assay (FLIPR, PFSK cells, orexin B 100 nM)
Format: cell-based
experimentalSetup: modified Cheng-Prusoff correction, read-out: OR 2 Kb
observedProperty: Kb (nM)

Cc1cc(C)nc(N2CC3CN(C(=O)c4ccccc4-c4ccccc4)CC3C2)n1 (centres unmarked) [Example 44]
63
Cc1cnc(C)c(N2CC3CN(C(=O)c4c(F)cccc4-n4nccn4)CC3C2)n1 (centres unmarked) [Example 101]
25
Cc1cc(C)nc(N2CC3CN(C(=O)c4ccccc4-c4ncn(C)n4)CC3C2)n1 (centres unmarked) [Example 308]
5
COc1cc(N2CC3CN(C(=O)c4ccccc4-n4nccn4)CC3C2)nc(N(C)C)n1 (centres unmarked) [Example 5]
5
O=C(c1cccc(F)c1-c1ncccn1)N1CC2CN(c3ncc4cc(F)ccc4n3)CC2C1 (centres unmarked) [Example 243]
6

I: O=C(c1ccccc1-c1ccccc1)N1CC2CN(c3nccc(-c4ccccc4)n3)CC2C1 (centres unmarked) [Example 164]
II: Cc1ccc(-n2nccn2)c(C(=O)N2CC3CN(c4nc(C)cnc4C)CC3C2)c1 (centres unmarked) [Example 123]
III: Cc1cc(N2CC3CN(C(=O)c4c(F)cccc4-n4nccn4)CC3C2)nc(C(F)(F)F)n1 (centres unmarked) [Example 98]
IV: Cc1noc(-c2ccccc2C(=O)N2CC3CN(c4ncc(F)c(C)n4)CC3C2)n1 (centres unmarked) [Example 310]
V: COc1ccc(C(=O)N2CC3CN(c4ncc(Cl)c(C)n4)CC3C2)c(-n2nccn2)c1 (centres unmarked) [Example 378]
Sort low-to-high on Kb, please. Show the ranking through the labels, in the order asked for. V, III, IV, II, I

1: O=C(c1ccccc1-n1nccn1)N1CC2CN(c3nccc(-c4cccs4)n3)CC2C1 (centres unmarked) [Example 143]
2: COc1ccnc(N2CC3CN(C(=O)c4ccc(F)cc4-n4nccn4)CC3C2)n1 (centres unmarked) [Example 159]
Form field 'greater Kb' accepts 1 or 2 ; which applies? Pick one and reply with its label. 1
(1: 79 nM, 2: 8 nM)

1: Cc1ccnc(N2CC3CN(C(=O)c4ccccc4-n4nccn4)CC3C2)n1 (centres unmarked) [Example 135]
2: Cc1nc(N2CC3CN(C(=O)c4ccccc4-n4nccn4)CC3C2)ncc1F (centres unmarked) [Example 290]
3: Cc1cccc(N2CC3CN(C(=O)c4ccccc4-c4cccs4)CC3C2)n1 (centres unmarked) [Example 134]
4: COc1cccc(N2CC3CN(C(=O)c4ccccc4-c4cccs4)CC3C2)n1 (centres unmarked) [Example 137]
# rank_down: sort by Kb, max first Would you mind listing the labels in the order asked for? 1, 4, 3, 2
(1: 40 nM, 4: 25 nM, 3: 12 nM, 2: 7 nM)

###

tgt: UniProtKB O43614
experiment: Human orexin 2 receptor radioligand binding ([3H]EMPA competition, HEK293 cells)
experimentalSetup: HEK293 cells expressing human orexin-2 receptor, read-out: OR 2 Ki
observedProperty: Ki (nM)

Cc1nc(N(C)C)cc(N2CC3CN(C(=O)c4c(F)cccc4-n4nccn4)CC3C2)n1 (stereo not shown) [Example 418]
55

A: Cc1cc(C)nc(N2CC3CN(C(=O)c4c(F)cccc4-c4ccnnc4)CC3C2)n1 (stereo not shown) [Example 488]
B: Cc1cc(C)nc(N2CC3CN(C(=O)c4c(C)nc5sccn45)CC3C2)n1 (stereo not shown) [Example 464]
C: CSc1nccc(-c2cccc(F)c2C(=O)N2CC3CN(c4nc(C)cc(C)n4)CC3C2)n1 (stereo not shown) [Example 485]
D: CCOc1ccc(C)nc1C(=O)N1CC2CN(c3cc(N(C)C)nc(C)n3)CC2C1 (stereo not shown) [Example 420]
E: Cc1cc(C)nc(N2CC3CN(C(=O)c4c(F)cccc4-c4cscn4)CC3C2)n1 (stereo not shown) [Example 486]
Please rank these molecules by Ki in descending order. Write the labels out in the order the request specifies. A, B, D, C, E
(A: 10000 nM, B: 3900 nM, D: 1350 nM, C: 84 nM, E: 15 nM)

###

tgt: human orexin 2 receptor (Homo sapiens (Human), UniProt O43614)
experiment: Human orexin 2 receptor Ca2+ mobilization assay (FLIPR, PFSK cells, orexin B 100 nM)
Type: cell-based
experimentalSetup: modified Cheng-Prusoff correction, read-out: OR 2 Kb
observedProperty: Kb (nM)

Cc1cc(N2CC3CN(C(=O)c4ccccc4-c4ccccc4)CC3C2)nc2ccccc12 (centres unmarked)
126
CCc1c(C)nc(N2CC3CN(C(=O)c4ccccc4-c4ncn(C)n4)CC3C2)nc1C (centres unmarked)
5
CN(C)c1nc(N2CC3CN(C(=O)c4cc(F)ccc4-n4nccn4)CC3C2)cc(C(F)(F)F)n1 (centres unmarked)
32
Cc1cnc(C)c(N2CC3CN(C(=O)c4ccccc4-c4ncn[nH]4)CC3C2)n1 (centres unmarked)
50
Cc1nc(N2CC3CN(C(=O)c4ccccc4-c4ncn(C)n4)CC3C2)nc(C)c1Cl (centres unmarked)
2

1: Cc1cc(C)nc(N2CC3CN(C(=O)c4ccccc4-c4cccc(F)c4)CC3C2)n1 (centres unmarked)
2: Cc1cc(C)nc(N2CC3CN(C(=O)c4cccc(F)c4-c4ccccn4)CC3C2)n1 (centres unmarked) [Example 367]
Compare reported Kb values for 1 and 2 . Which is lower? Respond using the label that marks the chosen record. 2

###

tgt: human orexin 2 receptor (Homo sapiens (Human), UniProt O43614)
experiment: Human orexin 2 receptor Ca2+ mobilization assay (FLIPR, PFSK cells, orexin B 100 nM)
Type: cell-based
experimentalSetup: modified Cheng-Prusoff correction, read-out: OR 2 Kb
observedProperty: Kb (nM)

Cc1ccc(-c2ncccn2)c(C(=O)N2CC3CN(c4nc(C)cnc4C)CC3C2)c1 (stereo not drawn)
32
Cc1cc(N2CC3CN(C(=O)c4ccccc4-c4nnc[nH]4)CC3C2)nc(C(F)(F)F)n1 (stereo not drawn)
50
Cc1cc(C)nc(N2CC3CN(C(=O)c4cccc(F)c4-c4ccn[nH]4)CC3C2)n1 (stereo not drawn)
2
Cc1nc(N2CC3CN(C(=O)c4ccccc4-c4ncn(C)n4)CC3C2)ncc1Cl (stereo not drawn)
10
Cc1ccc2ccccc2c1C(=O)N1CC2CN(c3nccc(-c4ccccc4)n3)CC2C1 (stereo not drawn)
99

a: Cc1noc(-c2ccccc2C(=O)N2CC3CN(c4nc(C)c(Cl)c(C)n4)CC3C2)n1 (stereo not drawn)
b: O=C(c1ccccc1-n1nccn1)N1CC2CN(c3nccc(C(F)(F)F)n3)CC2C1 (stereo not drawn)
Which shows the larger Kb value: a or b ? I would appreciate it if you answered with the label of your choice. b

a: Cc1cc(C)nc(N2CC3CN(C(=O)c4cccc(F)c4I)CC3C2)n1 (stereo not drawn)
b: Cc1cc(N2CC3CN(C(=O)c4ccccc4-n4nccn4)CC3C2)nc(C(F)(F)F)n1 (stereo not drawn)
// which entry has the larger Kb value, a or b ? Provide the label of your selected option as the answer. b

P: Cc1cc(N2CC3CN(C(=O)c4c(F)cccc4-c4ncccn4)CC3C2)nc(C(F)(F)F)n1 (stereo not drawn)
Q: Cc1cnc(C)c(N2CC3CN(C(=O)c4ccc(F)cc4-n4nccn4)CC3C2)n1 (stereo not drawn)
Sorting ascending by Kb, which comes first: P or Q ? Output the label that corresponds to your choice. P

###

tgt: human orexin 2 receptor (Homo sapiens (Human), UniProt O43614)
experiment: Human orexin 2 receptor Ca2+ mobilization assay (FLIPR, PFSK cells, orexin B 100 nM)
Format: cell-based
experimentalSetup: modified Cheng-Prusoff correction, read-out: OR 2 Kb
observedProperty: Kb (nM)

Cc1cccc(-c2c(F)cccc2C(=O)N2CC3CN(c4nc(C)cc(C)n4)CC3C2)n1 (stereo not drawn)
7
Cc1cc(C)nc(N2CC3CN(C(=O)c4cccc(F)c4-c4ccccn4)CC3C2)n1 (stereo not drawn) [Example 472]
3
O=C(c1ccccc1-c1nnc[nH]1)N1CC2CN(c3cnc4ccccc4n3)CC2C1 (stereo not drawn)
63
O=C(c1ccccc1-c1cccs1)N1CC2CN(c3cnc4ccccc4n3)CC2C1 (stereo not drawn)
31
CCOc1cccc(N2CC3CN(C(=O)c4ccccc4-n4nccn4)CC3C2)n1 (stereo not drawn)
63
Cc1nc(N2CC3CN(C(=O)c4ccccc4-c4ncn(C)n4)CC3C2)ncc1F (stereo not drawn)
11

1: COc1cc(OC)nc(N2CC3CN(C(=O)c4ccccc4-c4ccccn4)CC3C2)n1 (stereo not drawn)
2: Cc1ccc(-n2nccn2)c(C(=O)N2CC3CN(c4nccc(-c5ccccc5)n4)CC3C2)c1 (stereo not drawn)
Please let me know which one, 1 or 2 , has a lower measured Kb value. Response format: the label of the selected entry. 2
(2: 20 nM, 1: 40 nM)

P: Cc1cc(N2CC3CN(C(=O)c4ccc(F)cc4-n4nccn4)CC3C2)nc(C(F)(F)F)n1 (stereo not drawn)
Q: Cc1ccc2ccccc2c1C(=O)N1CC2CN(c3cnc4ccccc4n3)CC2C1 (stereo not drawn)
R: Cc1cc(C)nc(N2CC3CN(C(=O)c4ccccc4-c4ccccn4)CC3C2)n1 (stereo not drawn)
Please rank these molecules by Kb in descending order. Put the labels in the requested order and write them down. Q, P, R
